Can you tell me T/C for the items I'm about to list?
# System: B6C3F1 mice, B16 melanoma ip, median survival T/C
# experimentDescription: NCI In Vivo Anticancer Drug Screen. Data for tumor model B16 Melanoma (intraperitoneal) in B6C3F1 mice
# assayConditions: endpoint: median survival time; dose: 0.5 mg/kg/injection; schedule: Q01DX009 (ip); vehicle: saline; higher = longer survival
Inconclusive results and toxic doses are left out.

Before answering, review these 7 worked examples.
{"molecule": "CCOC(=O)NC1=C(N2CC2)C(=O)C(NC(=O)OCC)=C(N2CC2)C1=O", "T/C": "92 % of control"}
{"molecule": "[Cl][Hg][Cl]", "T/C": "86 % of control"}
{"molecule": "OCC1OC(n2cnc3c2NC=NC[C@H]3O)CC1O (stereo partly drawn)", "T/C": "96 % of control"}
{"molecule": "COc1cc([C@@H]2c3cc4c(cc3[C@@H](OC3OC5CO[C@@H](c6cccs6)OC5C(O)C3O)[C@H]3COC(=O)[C@H]23)OCO4)cc(OC)c1O (stereo partly drawn)", "T/C": "123 % of control"}
{"molecule": "COc1cc2c(c(OC)c1OC)-c1ccc(OC)c(=O)cc1[C@@H](NC(C)=O)CC2", "T/C": "154 % of control"}
{"molecule": "COc1cccc2c1C(=O)c1c(O)c3c(c(O)c1C2=O)C[C@@](O)(/C(C)=N/NC(=O)c1ccc(Cl)cc1)C[C@@H]3OC1CC(N)C(O)C(C)O1 (stereo partly drawn)", "T/C": "105 % of control"}
{"molecule": "COc1cc2c(cc1O)N=C[C@@H]1CCC(O)N1C2=O (mixture of isomers)", "T/C": "100 % of control"}

What T/C appears in the records for this molecule with B6C3F1 mice, B16 melanoma ip, median survival T/C? NC(=O)c1[nH]nc(C2OC(CO)C(O)C2O)c1O (stereo not drawn)
111 % of control

###

# Test system: B6C3F1 mice, B16 melanoma ip, median survival T/C
# experimentDescription: NCI In Vivo Anticancer Drug Screen. Data for tumor model B16 Melanoma (intraperitoneal) in B6C3F1 mice
# assayConditions: endpoint: median survival time; dose: 25.0 mg/kg/injection; schedule: Q01DX009 (ip); vehicle: Klucel (hydroxypropylcellulose) (HPC)
Toxic doses and inconclusive results are not listed. Rule for the calls: active = survival T/C of 150% or more; inactive = T/C below 125% in these data.
Permitted responses: active, inactive

{"compound": "Nc1ccc(S(=O)(=O)c2ccc(N)cc2)cc1", "group": "inactive"}
{"compound": "NC(N)=NS(=O)(=O)c1ccc(NCc2c3ccccc3nc3ccccc23)cc1", "group": "active"}
{"compound": "COc1ccc2ccccc2c1C1NC(=O)c2ccccc2N1 (stereo not given)", "group": "inactive"}
{"compound": "Cn1c2ccccc2c(=O)c2c(O)cc3c(c21)C=CC(C)(C)O3", "group": "inactive"}

Recorded test call requested for CN(C)CCCOc1nc2c(c(=O)n(C)c(=O)n2C)n1C (tested in a mixture with another compound)
inactive

###

# System: B6C3F1 mice, B16 melanoma ip, median survival T/C
# experimentDescription: NCI In Vivo Anticancer Drug Screen. Data for tumor model B16 Melanoma (intraperitoneal) in B6C3F1 mice
# assayConditions: endpoint: median survival time; dose: 3.12 mg/kg/injection; schedule: Q01DX009 (ip); vehicle: saline with Tween-80
Inconclusive results and toxic doses are left out. The calls were made as follows: active = survival T/C of 150% or more; inactive = T/C below 125% in these data.
Permitted responses: active, inactive

Use the examples below as a reference point.
{"molecule": "COc1ccc(C(Cn2ccnc2)Sc2ccc(Cl)c(Cl)c2)cc1 (stereo not given)", "group": "inactive"}
{"molecule": "O=[n+]1c2ccccc2n([O-])c2ccccc21.[Cl][Ni][Cl]", "group": "inactive"}
{"molecule": "ClC(Cl)(Cl)Sn1cccn1", "group": "inactive"}
{"molecule": "Oc1cc2ccccc2c(-c2c(O)c(O)cc3ccccc23)c1O", "group": "inactive"}

Recorded test call requested for `C=CC(=O)N1CN(C(=O)C=C)CN(C(=O)C=C)C1`
inactive

Recorded test call requested for `Nc1nc(N)c2c(Cl)c(CNc3ccc(Cl)c(Cl)c3)ccc2n1`
inactive

Recorded test call requested for O=C(CCCN1CCC(C(O)c2ccc(F)cc2)CC1)c1ccc(F)cc1 (stereo not given)
inactive

Recorded test call requested for `S=C(N/N=C1/CCCC/C1=N/NC(=S)N1CCOCC1)N1CCOCC1`
inactive

Recorded test call requested for COc1ccc2c(c1OC(C)=O)-c1cc(O)cc3c1C(C2)N(C(=O)CN(CCCl)CCCl)CC3 (stereo not given)
active

Recorded test call requested for `Cc1c2cc(Cl)c3ccccc3c2c[n+]2ccccc12`
inactive

Recorded test call requested for `O=C(Nc1ccc(C2=NCCN2)cc1)c1ccc(C(=O)Nc2ccc(C3=NCCN3)cc2)c(Cl)c1`
inactive

All values here come from PubChem BioAssay AID200.
